Every entry's value here was drawn from ChEMBL document CHEMBL3763141.

Let's look at some compounds and their measured MIC.
# System: Candida albicans
# Protocol: Antifungal activity against Candida albicans CAF2-1 after 24 hrs by spectrophotometry based broth dilution assay
# Type: functional
# Test Settings: CAF2-1, 24 h

[
  {
    "Compound": "COc1c(O)c2c(c3c1[C@@H](CO)OC3=O)CC[C@H]1[C@@H]3C[C@@H]3CC[C@]21C",
    "Target Under Test": "Candida albicans",
    "MIC": "> 32 µg/mL"
  },
  {
    "Compound": "COc1c(O)c2c(c3c1[C@H](O)COC3=O)CC[C@H]1C(C)(C)CCC[C@]21C",
    "Target Under Test": "Candida albicans",
    "MIC": "32 µg/mL"
  },
  {
    "Compound": "COc1c(O)c2c(c3c(=O)occc13)CC[C@H]1C(C)(C)CCC[C@]21C",
    "Target Under Test": "Candida albicans",
    "MIC": "> 32 µg/mL"
  },
  {
    "Compound": "CC1(C)CCC[C@]2(C)c3c(O)c(O)c4c(c3CC[C@@H]12)C(=O)O[C@H]4CO",
    "Target Under Test": "Candida albicans",
    "MIC": "32 µg/mL"
  },
  {
    "Compound": "COc1c(O)c2c(c3c1CCOC3=O)CC[C@H]1C(C)(C)C(=O)CC[C@]21C",
    "Target Under Test": "Candida albicans",
    "MIC": "> 32 µg/mL"
  },
  {
    "Compound": "CC1(C)CCC[C@]2(C)c3c(O)c(O)c4c(c3CC[C@@H]12)C(=O)OCC4",
    "Target Under Test": "Candida albicans",
    "MIC": "> 32 µg/mL"
  },
  {
    "Compound": "COc1ccc(-c2coc3cc(O)c(OC)cc3c2=O)cc1",
    "Target Under Test": "Candida albicans",
    "MIC": "> 32 µg/mL"
  },
  {
    "Compound": "Clc1ccc(COC(Cn2ccnc2)c2ccc(Cl)cc2Cl)c(Cl)c1 (stereo not given)",
    "Target Under Test": "Candida albicans",
    "MIC": "0.0156 µg/mL"
  },
  {
    "Compound": "COc1c(O)c2c(c3c1CCOC3=O)CC[C@H]1C(C)(C)CCC[C@]21C",
    "Target Under Test": "Candida albicans",
    "MIC": "> 32 µg/mL"
  },
  {
    "Compound": "C[C@H]1C(CCO)=C(O)C(=O)[C@H]2[C@H]1CC[C@H]1C(C)(C)CCC[C@]21C",
    "Target Under Test": "Candida albicans",
    "MIC": "> 32 µg/mL"
  },
  {
    "Compound": "CC1(C)CCC[C@]2(C)c3c(O)c(O)c4c(c3C=C[C@@H]12)C(=O)O[C@@H]4CO",
    "Target Under Test": "Candida albicans",
    "MIC": "> 32 µg/mL"
  },
  {
    "Compound": "COc1c(O)c2c(c3c1[C@@H](CO)OC3=O)CC[C@H]1C(C)(C)C(=O)CC[C@]21C",
    "Target Under Test": "Candida albicans",
    "MIC": "> 32 µg/mL"
  },
  {
    "Compound": "CC1(C)CCC[C@]2(C)c3c(O)c(O)c4ccoc(=O)c4c3CC[C@@H]12",
    "Target Under Test": "Candida albicans",
    "MIC": "> 32 µg/mL"
  },
  {
    "Compound": "COc1c(O)c2c(c3c1[C@@H](CO)OC3=O)CC[C@H]1C(C)(C)CCC[C@]21C",
    "Target Under Test": "Candida albicans",
    "MIC": "> 32 µg/mL"
  },
  {
    "Compound": "COc1c(O)c2c(c3c(=O)occc13)CC[C@H]1C(C)(C)C(=O)CC[C@]21C",
    "Target Under Test": "Candida albicans",
    "MIC": "> 32 µg/mL"
  }
]
